Test system: MT4
Assay: Effective concentration required to reduce the exponential growth of MT-4/KB cells
Format: functional, cell-based
Settings: Homo sapiens
reported property: EC50

smiles code: CCOC(=O)C(=O)CC(=O)/C=C/c1cccn1Cc1ccc(OC)cc1
reported property: EC50
observed: > 27 µM
//
smiles code: O=C(O)C(=O)CC(=O)c1cccn1Cc1ccc(F)cc1
reported property: EC50
observed: 1.5 µM
//
smiles code: O=C(/C=C/c1cccn1Cc1ccc(F)cc1)CC(=O)C(=O)O
reported property: EC50
observed: 11 µM
//
smiles code: CCOC(=O)C(=O)CC(=O)/C=C/c1cccn1Cc1ccc(Cl)cc1
reported property: EC50
observed: > 52 µM
//
smiles code: O=C(/C=C/c1cccn1Cc1ccc(Cl)cc1)CC(=O)C(=O)O
reported property: EC50
observed: > 95 µM
//
smiles code: O=C(/C=C/c1cccn1Cc1ccccc1)CC(=O)C(=O)O
reported property: EC50
observed: 1.5 µM
//
smiles code: O=C(/C=C/c1cccn1Cc1ccc([N+](=O)[O-])cc1)CC(=O)C(=O)O
reported property: EC50
observed: > 33 µM
//
smiles code: CCOC(=O)C(=O)CC(=O)/C=C/c1cccn1Cc1ccc([N+](=O)[O-])cc1
reported property: EC50
observed: > 31 µM
//
smiles code: COc1ccc(Cn2cccc2/C=C/C(=O)CC(=O)C(=O)O)cc1
reported property: EC50
observed: > 78 µM
//
smiles code: CCOC(=O)C(=O)CC(=O)/C=C/c1cccn1Cc1ccc(C)cc1
reported property: EC50
observed: > 7 µM
//
smiles code: Cc1ccc(Cn2cccc2/C=C/C(=O)CC(=O)C(=O)O)cc1
reported property: EC50
observed: > 41 µM
//
smiles code: CCOC(=O)C(=O)CC(=O)/C=C/c1cccn1Cc1ccc(F)cc1
reported property: EC50
observed: 12 µM

----------
Quick reference: CC50 of the listed items.
Assay: Cytotoxic concentration required to reduce the viability of mock-infected cells was determined by using MTT assay
reported property: CC50 (µM)

smiles code: CCOC(=O)C(=O)CC(=O)/C=C/c1cccn1Cc1ccc(OC)cc1
reported property: CC50
measurement units: µM
observed: 27

smiles code: O=C(/C=C/c1cccn1Cc1ccc(F)cc1)CC(=O)C(=O)O
reported property: CC50
measurement units: µM
observed: 80

smiles code: CCOC(=O)C(=O)CC(=O)/C=C/c1cccn1Cc1ccc([N+](=O)[O-])cc1
reported property: CC50
measurement units: µM
observed: 31

smiles code: CCOC(=O)C(=O)CC(=O)/C=C/c1cccn1Cc1ccc(C)cc1
reported property: CC50
measurement units: µM
observed: 7

smiles code: O=C(/C=C/c1cccn1Cc1ccccc1)CC(=O)C(=O)O
reported property: CC50
measurement units: µM
observed: 61

smiles code: O=C(/C=C/c1cccn1Cc1ccc(Cl)cc1)CC(=O)C(=O)O
reported property: CC50
measurement units: µM
observed: 95

smiles code: CCOC(=O)C(=O)CC(=O)/C=C/c1cccn1Cc1ccc(F)cc1
reported property: CC50
measurement units: µM
observed: 55

smiles code: CCOC(=O)C(=O)CC(=O)/C=C/c1cccn1Cc1ccc(Cl)cc1
reported property: CC50
measurement units: µM
observed: 52

smiles code: COc1ccc(Cn2cccc2/C=C/C(=O)CC(=O)C(=O)O)cc1
reported property: CC50
measurement units: µM
observed: 78

smiles code: CCOC(=O)C(=O)CC(=O)/C=C/c1cccn1Cc1ccccc1
reported property: CC50
measurement units: µM
observed: 17

smiles code: Cc1ccc(Cn2cccc2/C=C/C(=O)CC(=O)C(=O)O)cc1
reported property: CC50
measurement units: µM
observed: 41
